What EC50 ratio was measured for each of the following?
# Subject of test: Metabotropic glutamate receptor 2 (Rattus norvegicus)
# Assay remarks: Ratio between EC50 of compound and glutamate measured against Metabotropic glutamate receptor 2
# Format: functional

                       compound                           subject_of_test  observed_measurement
0  O=C(O)[C@H]1C[C@H](C(=O)O)N1  Metabotropic glutamate receptor 2 (Rattus norvegicus)                  > 80

Look at each compound and report its EC50 ratio.
1. NC1(C(=O)O)CC2CCC1C2C(=O)O (stereo in doubt; 10)
2. N[C@H](C(=O)O)C12CC(C(=O)O)(C1)C2
3. N[C@H](C(=O)O)c1cccc(O)c1

["> 80", "> 60", "> 80"]

Look at each compound and report its EC50 ratio.
1. NC1(C(=O)O)CC2CCC1C2C(=O)O (stereo in doubt; 8)
2. N[C@@H](Cn1oc(=O)[nH]c1=O)C(=O)O

1: > 80; 2: > 90

Look at each compound and report its EC50 ratio.
1. CC(N)(CCC(=O)O)C(=O)O (racemic)
2. NC1(C(=O)O)C2CCC1C(C(=O)O)C2 (stereo not drawn)

["> 80", "> 80"]
